Target: OVA (Gallus gallus)
Sequence (P01012 1-386): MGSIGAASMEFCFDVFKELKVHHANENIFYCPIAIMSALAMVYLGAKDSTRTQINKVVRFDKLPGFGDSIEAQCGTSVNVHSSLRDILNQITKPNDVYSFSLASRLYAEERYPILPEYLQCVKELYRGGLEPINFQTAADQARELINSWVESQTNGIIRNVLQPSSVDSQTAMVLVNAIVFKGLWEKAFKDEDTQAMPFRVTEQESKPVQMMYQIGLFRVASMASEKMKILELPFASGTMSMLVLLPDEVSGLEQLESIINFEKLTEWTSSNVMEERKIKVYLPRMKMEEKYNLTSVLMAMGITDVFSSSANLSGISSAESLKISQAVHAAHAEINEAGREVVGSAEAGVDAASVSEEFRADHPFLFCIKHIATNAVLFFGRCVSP
ASSAY_ENDPOINT: pKd
The quantity pKd is defined as the negative base-10 logarithm of the molar concentration.

The compound identified as N[C@@H](COP(=O)(O)O)C(=O)O registered its pKd at 2.59
